experiment: Clearance in male rat at 4 mg/kg,iv measured upto 24 hrs; type: ADME, organism-based; settings: in vivo
Test readout: clearance

query: Retrieve clearance measured for CC(=O)O[C@@]12CO[C@@H]1C[C@H](O)[C@@]1(C)C(=O)[C@H](O)C3=C(C)[C@@H](OC(=O)[C@H](OC(=O)CCC(=O)NCCCC[C@H](NC(=O)CC[C@@H](NC(=O)[C@H](C)NC(=O)/C=C/c4ccc(F)cc4Cl)C(N)=O)C(=O)O)[C@@H](NC(=O)OC(C)(C)C)c4ccccc4)C[C@@](O)([C@@H](OC(=O)c4ccccc4)[C@H]21)C3(C)C and print it.
result: 3.28 mL/min/kg

----------
assay: Half life in mouse tumor implanted with mouse 4T1 cells at 10 mg/kg,iv measured upto 72 hrs; type: ADME, organism-based, Neoplasm
Test readout: half-life

query: Item CC(=O)O[C@@]12CO[C@@H]1C[C@H](O)[C@@]1(C)C(=O)[C@H](O)C3=C(C)[C@@H](OC(=O)[C@H](OC(=O)CCC(=O)NCCCC[C@H](NC(=O)CC[C@@H](NC(=O)[C@H](C)NC(=O)/C=C/c4ccc(F)cc4Cl)C(N)=O)C(=O)O)[C@@H](NC(=O)OC(C)(C)C)c4ccccc4)C[C@@](O)([C@@H](OC(=O)c4ccccc4)[C@H]21)C3(C)C : provide half-life
result: 1.56 h

----------
test: Cmax in male Beagle dog at 2 mg/kg,iv measured upto 24 hrs; assay type: ADME, organism-based, Canis lupus familiaris; design: dose 2 mg/kg, time < 24 hrs, route iv; conditions: in vivo
Test readout: Cmax (ng/mL)
Write the number in ng/mL without appending the unit.

query: Give the measured Cmax for CC(=O)O[C@@]12CO[C@@H]1C[C@H](O)[C@@]1(C)C(=O)[C@H](O)C3=C(C)[C@@H](OC(=O)[C@H](OC(=O)CCC(=O)NCCCC[C@H](NC(=O)CC[C@@H](NC(=O)[C@H](C)NC(=O)/C=C/c4ccc(F)cc4Cl)C(N)=O)C(=O)O)[C@@H](NC(=O)OC(C)(C)C)c4ccccc4)C[C@@](O)([C@@H](OC(=O)c4ccccc4)[C@H]21)C3(C)C
result: 10800

----------
assay: Volume of distribution at steady state in male Beagle dog at 4 mg/kg,iv measured upto 24 hrs; type: ADME, organism-based, Canis lupus familiaris; conditions: in vivo, read-out: Vdss
Test readout: Vd (L/kg)
Write the value in L/kg as a bare number.

query: Quick one: give measured Vd for CC(=O)O[C@@]12CO[C@@H]1C[C@H](O)[C@@]1(C)C(=O)[C@H](O)C3=C(C)[C@@H](OC(=O)[C@H](OC(=O)CCC(=O)NCCCC[C@H](NC(=O)CC[C@@H](NC(=O)[C@H](C)NC(=O)/C=C/c4ccc(F)cc4Cl)C(N)=O)C(=O)O)[C@@H](NC(=O)OC(C)(C)C)c4ccccc4)C[C@@](O)([C@@H](OC(=O)c4ccccc4)[C@H]21)C3(C)C
result: 0.075

----------
assay: Cmax in rat at 4 mg/kg,iv measured upto 24 hrs; type: ADME, organism-based; design: dose 4 mg/kg, time < 24 hrs, route iv; conditions: in vivo
Test readout: Cmax (ng/mL)
Numbers only here, please. The scale is ng/mL.

query: Check the records and state Cmax for CC(=O)O[C@@]12CO[C@@H]1C[C@H](O)[C@@]1(C)C(=O)[C@H](O)C3=C(C)[C@@H](OC(=O)[C@H](OC(=O)CCC(=O)NCCCC[C@H](NC(=O)CC[C@@H](NC(=O)[C@H](C)NC(=O)/C=C/c4ccc(F)cc4Cl)C(N)=O)C(=O)O)[C@@H](NC(=O)OC(C)(C)C)c4ccccc4)C[C@@](O)([C@@H](OC(=O)c4ccccc4)[C@H]21)C3(C)C
result: 34200

----------
assay: Tmax in female Beagle dog at 2 mg/kg,iv measured upto 24 hrs; format: ADME, organism-based, Canis lupus familiaris; conditions: in vivo
Test readout: Tmax
Please append the unit to your numeric answer.

query: For the compound CC(=O)O[C@@]12CO[C@@H]1C[C@H](O)[C@@]1(C)C(=O)[C@H](O)C3=C(C)[C@@H](OC(=O)[C@H](OC(=O)CCC(=O)NCCCC[C@H](NC(=O)CC[C@@H](NC(=O)[C@H](C)NC(=O)/C=C/c4ccc(F)cc4Cl)C(N)=O)C(=O)O)[C@@H](NC(=O)OC(C)(C)C)c4ccccc4)C[C@@](O)([C@@H](OC(=O)c4ccccc4)[C@H]21)C3(C)C , give its reported Tmax.
result: 30 min

----------
experiment: Half life in male rat at 8 mg/kg,iv measured upto 24 hrs; type: ADME, organism-based; settings: in vivo
Test readout: half-life (min)
Dear colleague, please return just the value in min, with no unit written.

query: Quickly give me recorded half-life for CC(=O)O[C@@]12CO[C@@H]1C[C@H](O)[C@@]1(C)C(=O)[C@H](O)C3=C(C)[C@@H](OC(=O)[C@H](OC(=O)CCC(=O)NCCCC[C@H](NC(=O)CC[C@@H](NC(=O)[C@H](C)NC(=O)/C=C/c4ccc(F)cc4Cl)C(N)=O)C(=O)O)[C@@H](NC(=O)OC(C)(C)C)c4ccccc4)C[C@@](O)([C@@H](OC(=O)c4ccccc4)[C@H]21)C3(C)C
result: 21.4

----------
assay: Acute toxicity in Sprague-Dawley rat assessed as maximum tolerated dose at iv administration; assay type: organism-based; conditions: in vivo
Test readout: MTD (mg/kg)
Express the result in mg/kg but write the number alone.

query: // Input: CC(=O)O[C@@]12CO[C@@H]1C[C@H](O)[C@@]1(C)C(=O)[C@H](O)C3=C(C)[C@@H](OC(=O)[C@H](OC(=O)CCC(=O)NCCCC[C@H](NC(=O)CC[C@@H](NC(=O)[C@H](C)NC(=O)/C=C/c4ccc(F)cc4Cl)C(N)=O)C(=O)O)[C@@H](NC(=O)OC(C)(C)C)c4ccccc4)C[C@@](O)([C@@H](OC(=O)c4ccccc4)[C@H]21)C3(C)C . Output its MTD only.
result: 9.4

----------
assay: Clearance in Beagle dog at 1 mg/kg,iv measured upto 24 hrs; assay type: ADME, organism-based, Canis lupus familiaris; settings: in vivo
Test readout: clearance

query: # return recorded clearance for input CC(=O)O[C@@]12CO[C@@H]1C[C@H](O)[C@@]1(C)C(=O)[C@H](O)C3=C(C)[C@@H](OC(=O)[C@H](OC(=O)CCC(=O)NCCCC[C@H](NC(=O)CC[C@@H](NC(=O)[C@H](C)NC(=O)/C=C/c4ccc(F)cc4Cl)C(N)=O)C(=O)O)[C@@H](NC(=O)OC(C)(C)C)c4ccccc4)C[C@@](O)([C@@H](OC(=O)c4ccccc4)[C@H]21)C3(C)C
result: 11.5 mL/min/kg

----------
assay: Volume of distribution at steady state in rat at 4 mg/kg,iv measured upto 24 hrs; assay type: ADME, organism-based; conditions: in vivo, read-out: Vdss
Test readout: Vd (L/kg)
Answer with a number only, understood to be in L/kg.

query: Return the recorded Vd value; entry: CC(=O)O[C@@]12CO[C@@H]1C[C@H](O)[C@@]1(C)C(=O)[C@H](O)C3=C(C)[C@@H](OC(=O)[C@H](OC(=O)CCC(=O)NCCCC[C@H](NC(=O)CC[C@@H](NC(=O)[C@H](C)NC(=O)/C=C/c4ccc(F)cc4Cl)C(N)=O)C(=O)O)[C@@H](NC(=O)OC(C)(C)C)c4ccccc4)C[C@@](O)([C@@H](OC(=O)c4ccccc4)[C@H]21)C3(C)C
result: 0.076

----------
assay: Cmax in mouse plasma implanted with mouse 4T1 cells at 5.7 mg/kg,iv measured upto 72 hrs; type: ADME, organism-based; set-up: dose 5.7 mg/kg, time < 72 hrs, route iv
Test readout: Cmax
Could you kindly put the unit after your number?

query: Give the reported Cmax for this compound. CC(=O)O[C@@]12CO[C@@H]1C[C@H](O)[C@@]1(C)C(=O)[C@H](O)C3=C(C)[C@@H](OC(=O)[C@H](O)[C@@H](NC(=O)OC(C)(C)C)c4ccccc4)C[C@@](O)([C@@H](OC(=O)c4ccccc4)[C@H]21)C3(C)C [DOCETAXEL ANHYDROUS]
result: 8.09 µM

----------
experiment: in vivo; conditions: mouse, tumor, iv, 5.7 mg/kg
Description: AUC (0-t) in mouse tumor implanted with mouse 4T1 cells at 5.7 mg/kg,iv measured upto 72 hrs
Test readout: AUC(0-t) at 72 h (µM·h)
Report only the number, with the unit µM·h understood.

query: Item CC(=O)O[C@@]12CO[C@@H]1C[C@H](O)[C@@]1(C)C(=O)[C@H](O)C3=C(C)[C@@H](OC(=O)[C@H](O)[C@@H](NC(=O)OC(C)(C)C)c4ccccc4)C[C@@](O)([C@@H](OC(=O)c4ccccc4)[C@H]21)C3(C)C [DOCETAXEL ANHYDROUS] : provide AUC(0-t) at 72 h
result: 27

----------
assay: AUC (0-infinity) in female Beagle dog at 2 mg/kg,iv measured upto 24 hrs; assay type: ADME, organism-based, Canis lupus familiaris; parameters: time < 24 hrs, dose 2 mg/kg, route iv; details: in vivo
Test readout: AUC(0-inf) (ng·h/mL)
// return numeric value only (unit: ng·h/mL, not printed)

query: Please indicate AUC(0-inf) recorded for CC(=O)O[C@@]12CO[C@@H]1C[C@H](O)[C@@]1(C)C(=O)[C@H](O)C3=C(C)[C@@H](OC(=O)[C@H](OC(=O)CCC(=O)NCCCC[C@H](NC(=O)CC[C@@H](NC(=O)[C@H](C)NC(=O)/C=C/c4ccc(F)cc4Cl)C(N)=O)C(=O)O)[C@@H](NC(=O)OC(C)(C)C)c4ccccc4)C[C@@](O)([C@@H](OC(=O)c4ccccc4)[C@H]21)C3(C)C
result: 7020
